Answer each item with its documented abundance fitness.
B1: Chromodomain-helicase-DNA-binding protein 4, residues 365 to 417; numbered along this chain, Q14839 (parent)
chain: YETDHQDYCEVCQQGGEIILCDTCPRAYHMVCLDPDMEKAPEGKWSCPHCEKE

Variants of: B1
Assay: abundance fitness (aPCA) (normalised: wild type 0, dead -1); higher = more abundant; growth selection in yeast, the domain comes from the species named
Conditions: Homo sapiens
Give bare numbers.

Give abundance fitness for the following variant: "L33T" 0.162

Give abundance fitness for the following variant: "E2Q" 0.654

Give abundance fitness for the following variant: "M37C" 0.34

Give abundance fitness for the following variant: "P41S" -0.046

Give abundance fitness for the following variant: "E51W" -0.338

Give abundance fitness for the following variant: "C9V" -1.01

Give abundance fitness for the following variant: "E42C" -0.026

Give abundance fitness for the following variant: "Y1W" 0.441

Give abundance fitness for the following variant: "G15M" -0.028

Give abundance fitness for the following variant: "R26A" -0.137

Please state, for each entry, its recorded abundance fitness.
1. G16D
2. Y1V
3. Q14K
4. Q6F
5. E38N
6. G16I
7. I18A
8. T3A

[0.29, 0.348, 0.002, -0.606, -0.183, -0.08, -0.123, -0.396]

Please state, for each entry, its recorded abundance fitness.
1. G15K
2. I18H
3. K44C
4. T23M

1. -0.033
2. -0.408
3. -0.152
4. -0.297
